experiment: protein stability index of a GFP-peptide fusion (yeast GPS) (PSI 1-4); higher = more stable; sorted into four equal gates, so the index is relative within each strain; settings: pdr5∆
Known protein stability index of a selection of sequences
Note: the reply should be a number with no unit written.

Record excerpt, results attached:
{"columns": ["Chain Sequence", "protein stability index"],
 "data": [
  ["RVWAEYATKRQEAIQQN [PRP8]", 2.56],
  ["LKTFNGSLALLKLSMAD [POP4]", 2.33],
  ["LGLGIAFAGSKNDEVLG [RPN1]", 2.94],
  ["EVTEEQAEATEWAEENA [RPS0A]", 3.51],
  ["VKWVHMIIDEGHRMKNA [SNF2]", 1.91],
  ["SKGYVKTQFSWQYYYYT [RPS10A]", 2.54],
  ["NNRQLPYLVANVVEVMD [RPT5]", 2.78],
  ["YYNPQAGTKITICIELK [RGR1]", 2.24]
]}

Q) Given the entry QLIFRQQTGLVDAITRC [SNU114] , report its measured protein stability index.
A) 2.69

Q) Can you handle ALECRLASAIASGLLRA [CSN12] next?
A) 2.08

Q) Can you handle GLALQLFKKLKEENDEG [RPN2] next?
A) 3.28

Q) Can you handle NIDYQKGLLIWRLLFID [GRR1] next?
A) 1.28

Q) Can you handle DTFDGSDLRVLSGSISE [FAS1] next?
A) 2.34

Q) Can you handle TKLIISGQLNFEIDGDV [PCI8] next?
A) 2.16

Q) Can you handle NHMLIDSLNQLEIRNKI [RGR1] next?
A) 3.04

Data provenance: the supplement of paper PMC9732359
